Tested on: Escherichia coli (E. coli)
Assay: Antibacterial activity in vitro, agar plate dilution MIC
Type: cell-based
Settings: clinical isolate, Mueller-Hinton agar dilution
Procedure: The antibacterial activity of the novel derivatives prepared by EXAMPLE 1 to 5 was evaluated in vitro by agar plate dilution method using Mueller-Hinton agar according to the NCCLS (National Committee for Clinical Laboratory Standards. 2000. Methods for dilution antimicrobial susceptibility tests for bacteria that grow aerobically. Approved standard, NCCLS document M7-A5, 5th ed, vol 20, no. 2. National Committee for Clinical Laboratory Standards, Wayne, Pa.). […]
Outcome measure: MIC (µg/mL)
Record the value in µg/mL, omitting the unit from your answer.

Example entries and their recorded answers appear below.
1) CC1COB2OC(CN)c3cccc(c32)O1.Cl (centres unmarked) [EXAMPLE 1]	2
2) C[C@@H]1COB2O[C@H](CN)c3cccc(c32)O1 [compound 4]	1
3) Cl.NC[C@H]1OB2O[C@H](CO)COc3cccc1c32 [Compound C, reference compound]	2
4) CC1COB2O[C@H](CN)c3cccc(c32)O1.Cl (some centres unmarked) [EXAMPLE 2]	1

Now consider the entry below.
[in] Give the reported value of MIC for this record: Cl.NCC1OB2OCCOc3cccc1c32 (centres unmarked) [Compound A, reference compound]
[out] 2
